experiment: A CellTox Green Cytotoxicity Assay to monitor cytotoxicity in HEK293 cells - 24 hour (AID 1224875); details: CellTox Green fluorescence; series mostly up to 76.8 µM; further: nearly all actives have a fitted effect of over 45% in size
Records with an inconclusive call do not appear. Calls of active or inactive are those of the source. The call rests on the fitted dose curve; in most records, active means well fitted activation curve with a large enough effect in the repeat runs; inconclusive means weak or mixed curves; inactive means flat fitted curve, though single readings scatter.
Valid outcomes are listed here; reply with one: y = active, n = inactive

Sample answers from the record:
compound: CCCCCC[C@@H](O)C/C=C\CCCCCCCC(=O)O
group.label: n

compound: CCOc1cccc(-n2cc(C(=O)N3CCN(c4cc(C(=O)O)c5ccccc5c4)CC3)nc2-c2ccc(C)cc2)c1
group.label: n

compound: CCOC(C)=O
group.label: n

compound: CCOC(=O)C1=C(C)NC(C)=C(C(=O)OC)C1c1cccc(Cl)c1Cl (stereo not given)
group.label: n

Entry C1COC1 : call = ?
n

* * *

test: qHTS assay to identify small molecule agonists of the vitamin D receptor (VDR) signaling pathway - cell viability counter screen (AID 743224); details: VDR-bla HEK293T viability, CellTiter-Glo luminescence, 16 h; series mostly up to 62.6 µM; further: nearly all actives have a fitted effect of over 50% in size
Results filed as inconclusive are left out. Activity calls are given as the source filed them. Calls come from the whole dose curve; as a rule, active = well fitted cell-killing curve with a large enough effect in the repeat runs; inconclusive = weak or mixed curves, or effect the other way; inactive = no such curve, though single readings can be large or run the other way.
Mark one answer only. Choices: TRUE (active), FALSE (inactive)

compound: CC(O)c1ccccc1 (stereo not given)
group.label: FALSE
--
compound: Brc1cc(Br)c(Oc2cc(Br)c(Br)cc2Br)cc1Br
group.label: TRUE
--
compound: CN1CCCC(CC2c3ccccc3Sc3ccccc32)C1 (stereo not given)
group.label: TRUE
--
compound: Cc1ccc(CO)cc1
group.label: FALSE
--
compound: CCn1cc(C(=O)O)c(=O)c2cc(F)c(N3CCNCC3)cc21
group.label: FALSE
--
compound: CC1(C)O[C@@H]2C[C@H]3[C@@H]4C[C@H](F)C5=CC(=O)C=C[C@]5(C)[C@H]4[C@@H](O)C[C@]3(C)[C@]2(C(=O)CO)O1
group.label: FALSE

Name the outcome recorded for CC1(C)[C@@H](OC(=O)CCC(=O)O)CC[C@]2(C)[C@H]3C(=O)C=C4[C@@H]5C[C@@](C)(C(=O)O)CC[C@]5(C)CC[C@@]4(C)[C@]3(C)CC[C@@H]12 in the assay.
FALSE

Try this compound too: O=C(O)CCC(=O)C(=O)O
FALSE

Another compound to look at: NC(=O)c1ccncc1
FALSE

And for N#CCCN(CCO)CCO ?
FALSE

Another compound to look at: Oc1cc2c(cc1O)[C@H]1c3ccc(O)c(O)c3OC[C@@]1(O)C2
FALSE

Now consider Cc1[nH]cnc1CN1CCc2c(c3ccccc3n2C)C1=O and answer again.
FALSE

# repeat for O=C(OC(=O)c1ccccc1)c1ccccc1
FALSE

Moving on to CC(C)C(O)(c1ccc(OC(F)(F)F)cc1)c1cncnc1 (stereo not given)
FALSE

Entry to check: CCCCC(CC)COP(=O)(O)O (stereo not given)
FALSE

* * *

test: qHTS RealTime-Glo MT Cell Viability Assay in HepG2 cells - 0 hour (AID 1224889); settings: RealTime-Glo luminescence; series mostly up to 76.8 µM; further: nearly all actives have a fitted effect of over 50% in size
Inconclusive results are not listed. Activity calls are given as the source filed them. Calls come from the whole dose curve; as a rule, active = well fitted cell-killing curve with a large enough effect in the repeat runs; inconclusive = weak or mixed curves, or effect the other way; inactive = flat fitted curve, though single readings scatter.
parameter.measured: outcome

Below, 5 compounds whose answers are already recorded.
compound: O=C1CCCCCCCCCCOCCCCO1
parameter.measured: outcome
observed.result: inactive
--
compound: Cc1cc(C)c(N)cc1C
parameter.measured: outcome
observed.result: inactive
--
compound: CN1C(=O)c2ccccc2C1=O
parameter.measured: outcome
observed.result: inactive
--
compound: c1csc(SSc2cccs2)c1
parameter.measured: outcome
observed.result: inactive
--
compound: O=C(/C=C/c1ccccc1)OCCc1ccccc1
parameter.measured: outcome
observed.result: inactive

Give me outcome for each of these compounds, listed below.
1. CC(C)C(O)(c1ccc(OC(F)(F)F)cc1)c1cncnc1 (configuration not stated)
2. CS(=O)(=O)c1ccc(-c2cn3ccccc3n2)cc1
3. Clc1cc(Cl)nc(Cl)n1
4. CCOc1cccc(-n2cc(C(=O)N3CCN(c4cc(C(=O)O)c5ccccc5c4)CC3)nc2-c2ccc(C)cc2)c1
5. CN1CCCN=C1COC(=O)C(O)(c1ccccc1)C1CCCCC1 (configuration not stated)
6. OC(CCN1CCCC1)(c1ccccc1)C1CCCCC1 (configuration not stated)
7. Cc1cc2c(OCC(CNC(C)(C)C)OC(=O)c3ccccc3)cccc2[nH]1 (configuration not stated)

1: inactive; 2: inactive; 3: inactive; 4: inactive; 5: inactive; 6: inactive; 7: inactive

* * *

assay: qHTS assay to identify small molecule agonists of the peroxisome proliferator-activated receptor delta (PPARd) signaling pathway - cell viability counter screen (AID 743211); settings: PPARd-bla HEK293H viability, CellTiter-Glo luminescence, 17 h; series mostly up to 62.6 µM; further: nearly all actives have a fitted effect of over 55% in size
Results filed as inconclusive are left out. Active and inactive are the calls of the source. Calls come from the whole dose curve; as a rule, active = well fitted cell-killing curve with a large enough effect in the repeat runs; inconclusive = weak or mixed curves; inactive = no such curve, though single readings can be large or run the other way.
Select the matching outcome among active, inactive

// below: answered molecules
molecule: CCCCC(CC)COP(=O)(O)O (stereo not drawn)
group.label: inactive
--
molecule: CC1(C)[C@H](C(=O)O)N2C(=O)C[C@H]2S1(=O)=O
group.label: inactive
--
molecule: Cc1ccc2c(Br)cc(Br)c(O)c2n1
group.label: inactive

State the result this test recorded for COc1ccc(OC(=O)N(CC(=O)O)Cc2ccc(OCCc3nc(-c4ccccc4)oc3C)cc2)cc1 .
inactive

Another: Cc1cc(O)ccc1O
inactive

Try Cc1cc(=O)c2c(O)c3c(O)cc(=O)c4c3c3c(cc(O)c1c23)C(C)(C)C=4O next.
active

Item: O=C1NCCN1CCO
inactive

Cool, now C=CCc1ccccc1OCC(O)CNC(C)C (stereo not drawn)
inactive

* * *

assay: qHTS assay for small molecules that induce genotoxicity in human embryonic kidney cells expressing luciferase-tagged ATAD5 (AID 651632); settings: HEK293T ATAD5-luciferase induction, 16 h; series mostly up to 83.3 µM; further: nearly all actives have a fitted effect of over 15% in size
Inconclusive results are not listed. Active and inactive are the calls of the source. Calls follow the shape of the dose curve; as a rule, active = well fitted activation curve with a large enough effect in the repeat runs; inconclusive = weak or mixed curves; inactive = no such curve, though single readings can be large or run the other way.
Allowed answers: active, inactive

compound: O=C(O)c1cccc(-c2noc(-c3ccccc3F)n2)c1
group.label: active
//
compound: O=C1Cc2ccccc2N1c1c(Cl)cccc1Cl
group.label: inactive
//
compound: COc1ccccc1N1CCN(CC(O)COc2cccc3ccccc23)CC1 (configuration not stated)
group.label: inactive
//
compound: C=C(C)C(=O)OCCOCCOC(=O)C(=C)C
group.label: inactive
//
compound: O=[N+]([O-])c1cc(C2CCCCC2)c(O)c([N+](=O)[O-])c1
group.label: inactive

Can you look up the reported call for O[C@@H]1CO[C@H]2[C@@H]1OC[C@@H]2O for me?
inactive

Lookup CN1CCCC(n2nc(Cc3ccc(Cl)cc3)c3ccccc3c2=O)CC1 (configuration not stated)
inactive

What do you have for Cc1ccc(C(C)(C)O)cc1 ?
inactive

Next entry: Cc1ccccc1N=C(N)Nc1ccccc1C
inactive

Subsequent entry: CCCCCCCC/C=C\CCCCCCCCO
inactive

Okay, and C[C@@H]1CN(CCCn2c3ccccc3c3ccccc32)C[C@H](C)N1 ?
inactive

Now consider CC(CN(C)C)C(C)(O)Cc1ccc(Cl)cc1 (configuration not stated) .
inactive

* * *

target: Progesterone receptor (Homo sapiens) (UniProt P06401); assay: qHTS assay to identify small molecule antagonists of the progesterone receptor (PR) signaling pathway (AID 1346795); details: PR-UAS-bla HEK293T, beta-lactamase FRET ratio, 16 h; series mostly up to 92.4 µM
Sequence (P06401 whole entry, looked up): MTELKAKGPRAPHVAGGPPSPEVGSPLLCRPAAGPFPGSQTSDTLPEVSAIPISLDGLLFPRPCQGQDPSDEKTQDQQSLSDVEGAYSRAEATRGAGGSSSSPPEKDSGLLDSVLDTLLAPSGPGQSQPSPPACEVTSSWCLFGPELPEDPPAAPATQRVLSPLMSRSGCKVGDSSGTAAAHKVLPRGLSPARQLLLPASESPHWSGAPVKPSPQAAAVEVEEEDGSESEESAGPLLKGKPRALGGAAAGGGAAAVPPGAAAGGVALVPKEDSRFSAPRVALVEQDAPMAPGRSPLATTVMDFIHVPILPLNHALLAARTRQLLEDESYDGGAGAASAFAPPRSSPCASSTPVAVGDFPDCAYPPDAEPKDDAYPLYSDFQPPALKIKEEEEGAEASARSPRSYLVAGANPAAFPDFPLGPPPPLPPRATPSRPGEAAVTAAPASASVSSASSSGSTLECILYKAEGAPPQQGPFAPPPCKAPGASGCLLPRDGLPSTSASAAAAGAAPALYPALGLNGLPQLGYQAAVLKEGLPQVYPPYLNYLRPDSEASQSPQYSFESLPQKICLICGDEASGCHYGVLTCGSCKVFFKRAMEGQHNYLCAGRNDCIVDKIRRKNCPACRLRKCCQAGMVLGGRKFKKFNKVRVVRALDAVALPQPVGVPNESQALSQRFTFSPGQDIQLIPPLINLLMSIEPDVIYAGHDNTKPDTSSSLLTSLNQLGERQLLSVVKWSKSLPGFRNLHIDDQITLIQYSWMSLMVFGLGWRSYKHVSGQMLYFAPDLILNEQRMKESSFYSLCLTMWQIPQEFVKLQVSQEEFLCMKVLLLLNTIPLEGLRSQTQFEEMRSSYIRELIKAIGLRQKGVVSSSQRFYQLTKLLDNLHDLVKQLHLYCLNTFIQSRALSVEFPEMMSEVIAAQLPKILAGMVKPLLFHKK
Results filed as inconclusive are left out. Active and inactive are the calls of the source. Calls follow the shape of the dose curve; as a rule, active = well fitted inhibition curve with a large enough effect in the signal ratio in the repeat runs (not every such curve was filed as active); inconclusive = weak or mixed curves; inactive = flat fitted curve, though single readings scatter; the % refers to the signal ratio.
Classes to choose from: active, inactive

Known results for compounds:
molecule.smiles: C=C1C[C@@]23CC[C@H]4[C@@](C)(CCC[C@@]4(C)C(=O)O[C@@H]4O[C@H](CO)[C@@H](O)[C@H](O)[C@H]4O)[C@@H]2CC[C@]1(O[C@@H]1O[C@H](CO)[C@@H](O)[C@H](O[C@@H]2O[C@H](CO)[C@@H](O)[C@H](O)[C@H]2O)[C@H]1O[C@@H]1O[C@H](CO)[C@@H](O)[C@H](O)[C@H]1O)C3
group.label: inactive
//
molecule.smiles: COc1ncnc(NS(=O)(=O)c2ccc(N)cc2)c1OC
group.label: inactive

Consider the additional compound presented here.
Record request — test call for COc1cc(Nc2c(C#N)cnc3cc(OCCCN4CCN(C)CC4)c(OC)cc23)c(Cl)cc1Cl
active

* * *

Target: Nuclear receptor subfamily 1 group I member 2 (Homo sapiens) (UniProt O75469)
Experiment: CYP3A4 induction through human pregnane X receptor (PXR) by small molecules, qHTS assay (AID 1346984); further: nearly all actives have a fitted effect of over 40% in size
Conditions: DPX-2 HepG2 PXR, CYP3A4-luciferin luminescence, 24 h; series mostly up to 46.1 µM
Description: National Center for Advancing Translational Sciences [NCATS] NIH Chemical Genomics Center [NCGC] U.S. Environmental Protection Agency [EPA] National Institutes of Environmental Health Sciences [NIEHS] National Toxicology Program [NTP] The Pregnane X receptor (PXR), a ligand activated nuclear receptor plays a critical role in the regulation of genes involved in drug metabolism and transporters. Activation of PXR is responsible for unwanted adverse drug reactions. […]
Inconclusive results are not listed. Active and inactive are the calls of the source. Calls follow the shape of the dose curve; as a rule, active = well fitted activation curve with a large enough effect in the repeat runs; inconclusive = weak or mixed curves; inactive = no such curve, though single readings can be large or run the other way.
Give one outcome, nothing more. List: T (active), F (inactive)

Field: example entries. Status: answers known.
molecule: O=C1c2ccccc2C(=O)C1c1ccc(Br)cc1
tgt: Nuclear receptor subfamily 1 group I member 2 (Homo sapiens) (UniProt O75469)
group.label: T

molecule: C[C@]12CC[C@@H]3c4ccc(O)cc4CC[C@H]3[C@@H]1CC[C@@H]2OC(=O)CCC1CCCC1
tgt: Nuclear receptor subfamily 1 group I member 2 (Homo sapiens) (UniProt O75469)
group.label: F

molecule: CC(C)Nc1cccnc1N1CCN(C(=O)c2cc3cc(NS(C)(=O)=O)ccc3[nH]2)CC1
tgt: Nuclear receptor subfamily 1 group I member 2 (Homo sapiens) (UniProt O75469)
group.label: F

molecule: O=C(OCC(O)CO)c1ccccc1Nc1ccnc2cc(Cl)ccc12 (stereo not given)
tgt: Nuclear receptor subfamily 1 group I member 2 (Homo sapiens) (UniProt O75469)
group.label: F

Could you now consider this next molecule?
Which result was noted for this molecule in the test: OC[C@H]1O[C@@H](n2cnc3c(=S)nc[nH]c32)[C@H](O)[C@@H]1O
F
